Origin of values: the supplement of paper PMC10065799

Assign phosphorylation enrichment to each entry below.
tested on: AncSZ; assay: phosphorylation enrichment, bacterial display (enrichment ratio); higher = better substrate or ligand; peptides without Tyr show the background
Answer with a number only.

### Prompt Could you share which phosphorylation enrichment value was measured for KKRSVYIKVLF [CC2D2A_Y683_L684I] ?
### Response 0.99

### Prompt Could you share which phosphorylation enrichment value was measured for SGVSYYINLCQ [IGF2R_Y2025_N2020S] ?
### Response 1.01

### Prompt Could you share which phosphorylation enrichment value was measured for TLKDVYDDGKY [RPS6KA3_Y483] ?
### Response 1.02

### Prompt Could you share which phosphorylation enrichment value was measured for EAVSIYQFHGQ [CBLC_Y402] ?
### Response 1.01

### Prompt Could you share which phosphorylation enrichment value was measured for FTNRSYDLDFD [MYC_Y12_N11S_YF] ?
### Response 0.978

### Prompt Could you share which phosphorylation enrichment value was measured for CGQDPCIRELG [UROS_Y19_Y19C] ?
### Response 0.991

====

Assign phosphorylation enrichment to each entry below.
biological target: Jak2 (UniProt O60674); test: phosphorylation enrichment, bacterial display (enrichment ratio); higher = better substrate or ligand; peptides without Tyr show the background
Sequence (O60674 whole entry, looked up): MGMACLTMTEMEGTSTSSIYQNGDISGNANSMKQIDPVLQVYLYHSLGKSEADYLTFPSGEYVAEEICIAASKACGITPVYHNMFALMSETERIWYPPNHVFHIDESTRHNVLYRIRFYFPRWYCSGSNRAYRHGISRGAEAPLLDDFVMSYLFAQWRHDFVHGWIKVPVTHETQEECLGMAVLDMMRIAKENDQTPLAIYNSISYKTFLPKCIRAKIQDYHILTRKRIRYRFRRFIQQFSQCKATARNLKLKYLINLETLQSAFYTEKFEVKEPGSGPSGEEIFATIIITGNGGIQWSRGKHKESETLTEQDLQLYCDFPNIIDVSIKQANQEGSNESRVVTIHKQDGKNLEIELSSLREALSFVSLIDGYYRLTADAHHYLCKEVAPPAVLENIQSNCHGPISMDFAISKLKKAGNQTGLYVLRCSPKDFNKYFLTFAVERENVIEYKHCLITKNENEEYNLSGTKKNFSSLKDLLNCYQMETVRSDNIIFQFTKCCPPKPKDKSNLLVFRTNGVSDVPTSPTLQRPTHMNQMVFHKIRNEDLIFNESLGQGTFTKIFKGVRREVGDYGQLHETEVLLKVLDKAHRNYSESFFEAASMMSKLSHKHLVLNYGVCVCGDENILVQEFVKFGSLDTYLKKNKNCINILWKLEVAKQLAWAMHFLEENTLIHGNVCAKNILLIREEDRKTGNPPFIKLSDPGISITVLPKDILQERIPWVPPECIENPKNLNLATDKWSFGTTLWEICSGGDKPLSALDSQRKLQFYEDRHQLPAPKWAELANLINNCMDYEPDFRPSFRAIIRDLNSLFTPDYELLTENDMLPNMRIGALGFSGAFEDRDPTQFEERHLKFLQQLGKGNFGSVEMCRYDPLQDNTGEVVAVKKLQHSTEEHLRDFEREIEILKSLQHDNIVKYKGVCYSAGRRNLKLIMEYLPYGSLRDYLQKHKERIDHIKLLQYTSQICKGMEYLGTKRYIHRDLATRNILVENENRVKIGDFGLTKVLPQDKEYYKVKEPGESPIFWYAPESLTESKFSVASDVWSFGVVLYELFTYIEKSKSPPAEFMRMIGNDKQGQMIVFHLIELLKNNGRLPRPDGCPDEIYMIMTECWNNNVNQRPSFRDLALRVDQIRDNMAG
Answer with a number only.

### Prompt Could you share which phosphorylation enrichment value was measured for PLQDVYKIGGI [EEF1A2_Y254] ?
### Response 1

### Prompt Could you share which phosphorylation enrichment value was measured for AIQDAYMHITS [ADCY10_Y318] ?
### Response 0.584

### Prompt Could you share which phosphorylation enrichment value was measured for KPGLKYVTFGN [GALNTL5_Y404_YF] ?
### Response 0.605

====

biological target: FGFR3 (UniProt P22607); assay: phosphorylation enrichment, bacterial display (enrichment ratio); higher = better substrate or ligand; peptides without Tyr show the background
Sequence (P22607 whole entry, looked up): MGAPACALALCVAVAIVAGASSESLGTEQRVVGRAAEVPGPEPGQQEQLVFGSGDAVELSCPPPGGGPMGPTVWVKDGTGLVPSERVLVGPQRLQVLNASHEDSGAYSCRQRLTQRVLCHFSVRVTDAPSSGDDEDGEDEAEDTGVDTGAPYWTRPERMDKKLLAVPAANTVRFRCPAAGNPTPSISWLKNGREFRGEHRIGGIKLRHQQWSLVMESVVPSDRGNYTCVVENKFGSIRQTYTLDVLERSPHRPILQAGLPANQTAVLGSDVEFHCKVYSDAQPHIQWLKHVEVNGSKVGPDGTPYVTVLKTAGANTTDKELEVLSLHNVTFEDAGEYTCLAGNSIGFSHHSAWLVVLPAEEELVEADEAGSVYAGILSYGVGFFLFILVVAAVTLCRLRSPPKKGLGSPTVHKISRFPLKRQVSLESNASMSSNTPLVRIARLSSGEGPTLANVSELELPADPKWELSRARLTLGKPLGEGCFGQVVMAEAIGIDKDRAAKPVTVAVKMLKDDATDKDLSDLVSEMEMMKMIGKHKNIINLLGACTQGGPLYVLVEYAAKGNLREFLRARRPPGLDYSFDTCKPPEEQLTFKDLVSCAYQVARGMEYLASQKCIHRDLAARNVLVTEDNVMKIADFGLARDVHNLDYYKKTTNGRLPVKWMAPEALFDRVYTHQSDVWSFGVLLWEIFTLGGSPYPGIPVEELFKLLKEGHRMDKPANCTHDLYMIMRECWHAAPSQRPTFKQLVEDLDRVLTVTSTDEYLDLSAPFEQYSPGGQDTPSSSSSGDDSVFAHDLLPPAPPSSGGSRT
Assign phosphorylation enrichment to each entry below.
Answer with a number only.

### Prompt What measured phosphorylation enrichment is associated with LAIERYVVVSK [RHO_Y136_C140S] on FGFR3 (UniProt P22607)?
### Response 0.701

### Prompt What measured phosphorylation enrichment is associated with DKGTLYIVEQI [PLBD1_Y375] on FGFR3 (UniProt P22607)?
### Response 0.703

### Prompt What measured phosphorylation enrichment is associated with RSAGKYDVYLI [MECP2_Y120] on FGFR3 (UniProt P22607)?
### Response 0.717

### Prompt What measured phosphorylation enrichment is associated with SENAFYLSPHI [COL6A3_Y2827_D2831H] on FGFR3 (UniProt P22607)?
### Response 0.693

### Prompt What measured phosphorylation enrichment is associated with DLDPNYVLSSR [CKM_Y125] on FGFR3 (UniProt P22607)?
### Response 0.714

### Prompt What measured phosphorylation enrichment is associated with PNRILYGDFRQ [MYH6_Y717] on FGFR3 (UniProt P22607)?
### Response 0.688

### Prompt What measured phosphorylation enrichment is associated with CTTIHYNYMCH [TP53_Y234_N239H] on FGFR3 (UniProt P22607)?
### Response 0.706

====

target: SHP2-C SH2; assay: SH2 binding enrichment of the phosphorylated peptide, bacterial display (enrichment ratio); higher = better substrate or ligand; peptides without Tyr show the background;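 further: peptide library displayed on the E. coli surface as eCPX fusions, selected cells deep-sequenced, score is each peptide's frequency after selection divided by its frequency in the input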
measurementKind: SH2 binding enrichment

### Prompt What measured SH2 binding enrichment is associated with YLTSSYINIST [IL23R_Y178] on SHP2-C SH2?
### Response 1.9

### Prompt What measured SH2 binding enrichment is associated with EDAHHYLCKEV [JAK2_Y382_A377E] on SHP2-C SH2?
### Response 0.781

### Prompt What measured SH2 binding enrichment is associated with KLADVYQAELR [GFAP_Y116] on SHP2-C SH2?
### Response 0.561

### Prompt What measured SH2 binding enrichment is associated with SVNIRYLLFPS [SERAC1_Y548] on SHP2-C SH2?
### Response 1.67

### Prompt What measured SH2 binding enrichment is associated with CTTIHYNYTCN [TP53_Y234_M237T] on SHP2-C SH2?
### Response 1.86

### Prompt What measured SH2 binding enrichment is associated with FGEFRYRSVIK [CFTR_Y517_D513G_YF] on SHP2-C SH2?
### Response 0.426

### Prompt What measured SH2 binding enrichment is associated with IGLHAYGDQFR [IDH1_Y135_R132L_YF] on SHP2-C SH2?
### Response 0.449

### Prompt What measured SH2 binding enrichment is associated with MRTMGYMPTEM [CABP5_Y62] on SHP2-C SH2?
### Response 1.08

### Prompt What measured SH2 binding enrichment is associated with HGQVNYEEFVQ [CALM2_Y139_D134H] on SHP2-C SH2?
### Response 0.651

### Prompt What measured SH2 binding enrichment is associated with YTNELYMMMRD [FGFR1_Y730_C725Y] on SHP2-C SH2?
### Response 0.645

### Prompt What measured SH2 binding enrichment is associated with SVGGLYRDMGA [CBX8_Y321_G317V] on SHP2-C SH2?
### Response 0.53

### Prompt What measured SH2 binding enrichment is associated with CNPLCYPTIMI [OR6K6_Y160_R159C] on SHP2-C SH2?
### Response 0.617

### Prompt What measured SH2 binding enrichment is associated with SSNPEYLSASD [INSR_Y999] on SHP2-C SH2?
### Response 0.642

### Prompt What measured SH2 binding enrichment is associated with HHLSTYTKMLF [CHST8_Y251_R247H] on SHP2-C SH2?
### Response 3.88

### Prompt What measured SH2 binding enrichment is associated with SVTCAYSPALN [TP53_Y126_T125A] on SHP2-C SH2?
### Response 0.66

### Prompt What measured SH2 binding enrichment is associated with IRFSDYVEVAD [PHACTR1_Y525] on SHP2-C SH2?
### Response 0.838

### Prompt What measured SH2 binding enrichment is associated with RSAGKYDVYLI [MECP2_Y120] on SHP2-C SH2?
### Response 0.539

### Prompt What measured SH2 binding enrichment is associated with SEELHYYVQNH [UQCRC2_Y207_F208Y] on SHP2-C SH2?
### Response 0.451

### Prompt What measured SH2 binding enrichment is associated with KLADMYGGGKD [CDH1_Y876_E880K] on SHP2-C SH2?
### Response 0.376

### Prompt What measured SH2 binding enrichment is associated with NTVLGYFIGCI [GARS1_Y408_R412C] on SHP2-C SH2?
### Response 0.514

### Prompt What measured SH2 binding enrichment is associated with RGSQQYRALTV [TUBB8_Y281] on SHP2-C SH2?
### Response 0.919

### Prompt What measured SH2 binding enrichment is associated with EKESCYILHSS [PATJ_Y783_E779K] on SHP2-C SH2?
### Response 0.694

### Prompt What measured SH2 binding enrichment is associated with YGIAQYCCRMG [LRRK2_Y2023] on SHP2-C SH2?
### Response 0.936

### Prompt What measured SH2 binding enrichment is associated with NFFEFYVDDPL [GCHFR_Y48_P53L_YF] on SHP2-C SH2?
### Response 0.585

### Prompt What measured SH2 binding enrichment is associated with PDKRIYQFTAS [SKAP2_Y197_A202S] on SHP2-C SH2?
### Response 0.613

### Prompt What measured SH2 binding enrichment is associated with AYRRGYFDEEM [PLEC_Y2971] on SHP2-C SH2?
### Response 0.91

### Prompt What measured SH2 binding enrichment is associated with PAVGIYNDNIN [CDCP1_Y707] on SHP2-C SH2?
### Response 0.729

### Prompt What measured SH2 binding enrichment is associated with MPVDGYISGLL [PAK6_Y81] on SHP2-C SH2?
### Response 0.661

### Prompt What measured SH2 binding enrichment is associated with VMSGPYELKAL [IL1B_Y140] on SHP2-C SH2?
### Response 1.52

### Prompt What measured SH2 binding enrichment is associated with MEVGQYFFVKC [CYBB_Y324_I325F] on SHP2-C SH2?
### Response 0.61

### Prompt What measured SH2 binding enrichment is associated with SILTVYSKDNF [PANK2_Y400_A398T_YF] on SHP2-C SH2?
### Response 0.73

### Prompt What measured SH2 binding enrichment is associated with IYQASYYRRGD [LTK_Y676_R673Q] on SHP2-C SH2?
### Response 0.742

### Prompt What measured SH2 binding enrichment is associated with VEYAKYGSLQG [RET_Y809_R813Q] on SHP2-C SH2?
### Response 4.76

### Prompt What measured SH2 binding enrichment is associated with TKDTIYKQPMF [GBA_Y451_F450I] on SHP2-C SH2?
### Response 1.15

### Prompt What measured SH2 binding enrichment is associated with AIQDAYMHITS [ADCY10_Y318] on SHP2-C SH2?
### Response 0.742

### Prompt What measured SH2 binding enrichment is associated with QEALEYFMKQV [PIK3CA_Y1038_M1043V] on SHP2-C SH2?
### Response 1.05

### Prompt What measured SH2 binding enrichment is associated with WKGSWYSMRKM [FGB_Y475] on SHP2-C SH2?
### Response 1.48

### Prompt What measured SH2 binding enrichment is associated with SLFNGYVYSGM [NEIL3_Y71_V76M] on SHP2-C SH2?
### Response 2.05

### Prompt What measured SH2 binding enrichment is associated with LKVQVYILGRE [ASS1_Y359_G356V] on SHP2-C SH2?
### Response 0.968

### Prompt What measured SH2 binding enrichment is associated with VIESSYQVAKA [CPT1B_Y534] on SHP2-C SH2?
### Response 0.782

### Prompt What measured SH2 binding enrichment is associated with GVLDIYGFEIL [MYO1A_Y382] on SHP2-C SH2?
### Response 0.574

### Prompt What measured SH2 binding enrichment is associated with FPKDVYVDSKD [NDUFAF4_Y69_L65P] on SHP2-C SH2?
### Response 0.821

### Prompt What measured SH2 binding enrichment is associated with IRTIDYRYTVW [IDS_Y497] on SHP2-C SH2?
### Response 1.31
